Test system: GST-tagged Cn
PROCEDURE SUMMARY: PEPperPRINT peptide microarray binding assay with GST-tagged Cn
COND: GST-tagged Cn, mean over the chip spots listed under Location on chip
READOUT KIND: Chip Fluorescence (mean)
Simply state the number, no unit and no words.

Lookup: Reported Chip Fluorescence (mean) for SAASFRIKQIEFMVSA [Seqshuffled_4815] : what is it?
Found: -0.8277

Lookup: What value of Chip Fluorescence (mean) has been recorded for this entry: RQPGTLGLTLEGHSNS [SeqRBM_7786]
Found: -0.3628

Lookup: So what's the measured Chip Fluorescence (mean) for this one? VEYDKVWKVAQFVNKC [Seqrandom_9995]
Found: -0.6454

Lookup: Form field: reported Chip Fluorescence (mean) of DVSDSPDVDLKIPQAR [SeqRBM_5022]
Found: -0.1589

Lookup: Which Chip Fluorescence (mean) is listed for KKDVPPKILIEPPREF [SeqRBM_6642] ?
Found: -0.7336

Lookup: Entry PSPDQPGIVVHTCEDD [SeqRBMlowT_9795] has what Chip Fluorescence (mean)?
Found: 0.3644

Lookup: May I ask what Chip Fluorescence (mean) has been recorded for TFWTNPQFVVSLPEPD [SeqRBMlowT_3270] ?
Found: -0.001001

Lookup: Fill blank: measured Chip Fluorescence (mean) of the sequence TGTLCKSGMLVSTRMS [SeqRBM_1323] is ____.
Found: -0.07521

Lookup: Give the measured Chip Fluorescence (mean) of TFWTNPQFRLKLEDPD [SeqRBMlowT_699] .
Found: -0.3514

Lookup: Given the sequence KFPGAEFLPQTLTPPP [Seqshuffled_9792] , what is its reported Chip Fluorescence (mean)?
Found: -0.9321

Lookup: What value of Chip Fluorescence (mean) has been reported for the following sequence? RQPGQALLTLRGHSAS [SeqRBMlowT_5869]
Found: -0.3106

Lookup: Item ASSSAPEIVVSKPEHN [SeqKCNN2_Pan_troglodytes] has what recorded Chip Fluorescence (mean)?
Found: -0.7597

Lookup: Reported Chip Fluorescence (mean), sequence TFWSNPQFTITLAEPD [SeqRBMlowT_8092] : ____
Found: -0.8998

Lookup: Param item = SQMGKSRPWVSPERDN [SeqRBM_2721] ; retrieve measured Chip Fluorescence (mean).
Found: -0.1667

Lookup: Entry TFWTNPQFRIKLEDVD [SeqRBMlowT_2] has what Chip Fluorescence (mean)?
Found: -0.7635

Lookup: Which measured Chip Fluorescence (mean) value corresponds to TFWTNPQYRIKLTDAD [SeqRBMlowT_4313] ?
Found: -0.5715

Lookup: Give its Chip Fluorescence (mean) value. Item: PQLYQNVLGIGSFSLS [SeqRBMlowT_4804]
Found: -0.7977

Lookup: Name the reported Chip Fluorescence (mean) value associated with the sequence PKEDLPVITIDPASPQ [SeqNHE1_Pan_troglodytes]
Found: -0.5019

Lookup: // returns reported Chip Fluorescence (mean) for input HSKLIPKLSISSPVHH [SeqRBMlowT_1731]
Found: -1.087

Lookup: Need Chip Fluorescence (mean), item KKMAPPCISVHPPEED [SeqRBMlowT_5025]
Found: -1.335

Lookup: Name the reported Chip Fluorescence (mean) value associated with the sequence QGLYENVLGMEAFSVS [SeqRBM_7629]
Found: 0.1691

Lookup: Record request: Chip Fluorescence (mean) value, item QTEDQPGIIVHTAMLP [SeqRCN1_Bactrocera_dorsalis]
Found: -0.783

Lookup: Given the entry TFWTNPQYVVSLEEPD [SeqRBMlowT_5673] , report its measured Chip Fluorescence (mean).
Found: 0.02031

Lookup: Entry under review: SQAKSPRIEITAYTHV [SeqRBM_8514] . Reported Chip Fluorescence (mean)?
Found: -0.444

Lookup: Given QYAYNSQMMGITTQLQ [Seqshuffled_9335] , state its recorded Chip Fluorescence (mean).
Found: -0.5817

Lookup: // Chip Fluorescence (mean) lookup, key: KVTTLKSVSPAIAAPE [Seqshuffled_1741]
Found: -0.5033

Cited source: paper PMC9928118
